# IC50 measurements, system: FAK (Homo sapiens (Human), UniProt Q05397)
# Sequence (Q05397 whole entry): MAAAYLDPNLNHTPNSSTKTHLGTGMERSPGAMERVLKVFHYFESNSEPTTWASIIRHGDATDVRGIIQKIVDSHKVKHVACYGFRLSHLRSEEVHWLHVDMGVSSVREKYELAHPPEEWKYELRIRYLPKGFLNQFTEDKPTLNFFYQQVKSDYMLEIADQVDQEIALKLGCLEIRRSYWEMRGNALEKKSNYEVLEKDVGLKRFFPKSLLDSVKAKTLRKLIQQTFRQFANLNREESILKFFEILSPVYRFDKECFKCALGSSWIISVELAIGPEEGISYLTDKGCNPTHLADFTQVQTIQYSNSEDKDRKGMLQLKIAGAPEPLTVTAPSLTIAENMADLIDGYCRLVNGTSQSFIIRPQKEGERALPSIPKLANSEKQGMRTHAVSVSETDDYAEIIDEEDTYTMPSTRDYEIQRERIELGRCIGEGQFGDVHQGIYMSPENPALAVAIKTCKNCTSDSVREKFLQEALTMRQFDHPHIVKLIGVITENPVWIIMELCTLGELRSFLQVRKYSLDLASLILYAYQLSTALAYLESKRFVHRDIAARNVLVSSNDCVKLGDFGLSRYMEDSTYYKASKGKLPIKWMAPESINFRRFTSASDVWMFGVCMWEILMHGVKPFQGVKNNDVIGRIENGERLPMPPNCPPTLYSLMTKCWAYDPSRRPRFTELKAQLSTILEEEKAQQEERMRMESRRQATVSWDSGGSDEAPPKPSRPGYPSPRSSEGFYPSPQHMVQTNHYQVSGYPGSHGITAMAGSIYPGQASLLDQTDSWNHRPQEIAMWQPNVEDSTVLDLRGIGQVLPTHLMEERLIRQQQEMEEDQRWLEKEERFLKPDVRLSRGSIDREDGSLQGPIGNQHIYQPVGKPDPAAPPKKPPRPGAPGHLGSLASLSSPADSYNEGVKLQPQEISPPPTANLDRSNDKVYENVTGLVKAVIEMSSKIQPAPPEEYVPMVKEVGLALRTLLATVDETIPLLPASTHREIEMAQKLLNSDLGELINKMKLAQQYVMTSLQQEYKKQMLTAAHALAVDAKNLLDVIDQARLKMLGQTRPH

Incoming: Determine from records and report IC50 for CNS(=O)(=O)c1ccc(Nc2nc3c(c(Nc4ccccc4S(=O)(=O)NC(C)C)n2)CCN3)cc1
Outgoing: < 20 nM

Incoming: Tell me IC50 reported for CCCCNS(=O)(=O)c1ccccc1Nc1nc(Nc2ccc(N3CCOCC3)cc2OC)nc2c1CCN2
Outgoing: < 50 nM

Incoming: Find the measured IC50 of COc1cc(N2CCOCC2)ccc1Nc1nc2c(c(Nc3ccc(F)c(F)c3)n1)C(C)CN2 (racemic) and report it.
Outgoing: > 1000 nM

Incoming: Supply recorded IC50 for COc1cc(N2CCOCC2)ccc1Nc1nc2c(c(Nc3ccccc3S(=O)(=O)NC3CCC3)n1)C(C)CN2 (racemic) here.
Outgoing: < 20 nM

Incoming: Return reported IC50. Input molecule: COCCNS(=O)(=O)c1ccccc1Nc1nc(Nc2ccc(N3CCOCC3)cc2OC)nc2c1C1(CC1)CN2
Outgoing: < 20 nM

Incoming: Write down IC50 measured for item CCCNS(=O)(=O)c1ccccc1Nc1nc(Nc2ccc(N3CCOCC3)cc2OC)nc2c1CCN2
Outgoing: < 20 nM

* * *

Provide the recorded pIC50 for the entries that follow.
pIC50: −log10 of the molar value.

Incoming: Param request: pIC50 | system PYK2 (Homo sapiens (Human)) | item COc1cc(N2CCOCC2)ccc1Nc1nc2c(c(Nc3ccccc3S(=O)(=O)NC(C)(C)C)n1)CCN2
Outgoing: > 7.00

Incoming: // output pIC50; input COc1cc(N2CCOCC2)ccc1Nc1nc2c(c(Nc3ccccc3C(=O)N3CCCC3)n1)C(C)(C)CN2 ; system PYK2 (Homo sapiens (Human))
Outgoing: > 6.70

Incoming: Given CC(C)NS(=O)(=O)c1ccccc1Nc1nc(Nc2ccc(OC(F)(F)F)cc2)nc2c1CCN2 , report its pIC50 on PYK2 (Homo sapiens (Human)).
Outgoing: > 7.00

Incoming: Quote pIC50 with test system PYK2 (Homo sapiens (Human)) for COc1cc(N2CCOCC2)ccc1Nc1nc2c(c(Nc3ccccc3S(=O)(=O)NC3CCCC3)n1)CCN2
Outgoing: > 7.00

* * *

endpointLabel: IC50

Incoming: Answer with IC50 of COc1cc(N2CCOCC2)ccc1Nc1nc2c(c(NCc3ccccc3N(C)S(C)(=O)=O)n1)CCN2 measured for PYK2 (Homo sapiens (Human), UniProt Q14289).
Outgoing: > 2000 nM

Incoming: Output reported IC50 of the compound CC(C)NS(=O)(=O)c1ccccc1Nc1nc(Nc2ccc(C(=O)N3CCOCC3)cc2)nc2c1CCN2 on PYK2 (Homo sapiens (Human), UniProt Q14289).
Sequence (Q14289 whole entry): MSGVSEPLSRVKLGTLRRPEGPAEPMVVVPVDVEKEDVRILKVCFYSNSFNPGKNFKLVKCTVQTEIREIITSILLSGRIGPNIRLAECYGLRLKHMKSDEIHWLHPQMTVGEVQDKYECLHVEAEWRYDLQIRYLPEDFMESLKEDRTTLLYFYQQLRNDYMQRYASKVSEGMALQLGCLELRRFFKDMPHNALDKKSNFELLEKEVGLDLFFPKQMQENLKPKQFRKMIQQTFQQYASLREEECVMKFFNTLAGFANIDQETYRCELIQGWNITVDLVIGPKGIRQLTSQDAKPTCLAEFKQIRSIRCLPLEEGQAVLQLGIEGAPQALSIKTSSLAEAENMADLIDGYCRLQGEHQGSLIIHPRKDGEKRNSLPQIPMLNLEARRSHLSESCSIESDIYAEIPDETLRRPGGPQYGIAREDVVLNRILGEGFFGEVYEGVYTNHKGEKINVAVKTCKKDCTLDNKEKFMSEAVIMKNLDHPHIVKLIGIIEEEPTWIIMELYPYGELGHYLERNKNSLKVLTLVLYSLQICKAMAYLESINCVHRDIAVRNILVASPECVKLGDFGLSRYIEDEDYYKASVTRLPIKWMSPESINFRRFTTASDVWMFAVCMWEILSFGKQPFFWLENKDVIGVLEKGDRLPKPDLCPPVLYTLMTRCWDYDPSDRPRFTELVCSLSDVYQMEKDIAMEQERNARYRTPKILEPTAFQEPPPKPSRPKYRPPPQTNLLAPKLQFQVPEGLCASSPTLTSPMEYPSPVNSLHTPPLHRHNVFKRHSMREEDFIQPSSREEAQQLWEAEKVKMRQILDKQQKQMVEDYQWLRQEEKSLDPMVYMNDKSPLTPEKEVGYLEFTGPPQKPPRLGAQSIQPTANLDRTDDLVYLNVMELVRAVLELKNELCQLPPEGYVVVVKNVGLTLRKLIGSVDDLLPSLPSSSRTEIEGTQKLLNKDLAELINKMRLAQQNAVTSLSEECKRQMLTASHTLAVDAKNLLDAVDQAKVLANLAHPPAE
Outgoing: < 20 nM

Incoming: Under PYK2 (Homo sapiens (Human), UniProt Q14289), report IC50 for COc1cc(N2CCOCC2)ccc1Nc1nc2c(c(Nc3ccccc3S(=O)(=O)NC3CCC3)n1)C(C)(C)CN2
Outgoing: < 20 nM

Incoming: State IC50 on PYK2 (Homo sapiens (Human), UniProt Q14289). Entry: CNS(=O)(=O)c1ccccc1Nc1nc(Nc2cc(OC)c(OC)c(OC)c2)nc2c1C1(CC1)CN2
Outgoing: < 20 nM

Incoming: Tell me its IC50 on PYK2 (Homo sapiens (Human), UniProt Q14289): CCCNS(=O)(=O)c1ccccc1Nc1nc(Nc2ccc(N3CCOCC3)cc2OC)nc2c1C1(CC1)CN2
Outgoing: < 20 nM

Incoming: Check PYK2 (Homo sapiens (Human), UniProt Q14289) data and give IC50 for COc1cc(N2CCOCC2)ccc1Nc1nc2c(c(Nc3ccccc3S(=O)(=O)NC3CCC3)n1)CCN2 .
Outgoing: < 20 nM

Incoming: Please indicate recorded IC50 of COc1cc(N2CCOCC2)ccc1Nc1nc2c(c(Nc3ccccc3S(=O)(=O)NC3CCC3)n1)[C@H](C)CN2 measured with PYK2 (Homo sapiens (Human), UniProt Q14289).
Outgoing: < 20 nM

Incoming: With PYK2 (Homo sapiens (Human), UniProt Q14289) as the test system, provide measured IC50 for this compound: COc1cc(N2CCOCC2)ccc1Nc1nc2c(c(Nc3ccccc3N(C)S(C)(=O)=O)n1)C(C)(C)CN2
Outgoing: < 100 nM

Incoming: // fetch IC50 for CCCNS(=O)(=O)c1ccccc1Nc1nc(Nc2ccc(N3CCOCC3)cc2OC)nc2c1C(C)(C)CN2 ; system: PYK2 (Homo sapiens (Human), UniProt Q14289)
Outgoing: < 20 nM

Incoming: Jot down IC50 (PYK2 (Homo sapiens (Human), UniProt Q14289)) of COc1cc(N2CCC(O)C2)ccc1Nc1nc2c(c(Nc3ccccc3S(=O)(=O)NC(C)C)n1)CCN2 (centres unmarked) .
Outgoing: < 100 nM

Incoming: Report value only: IC50, PYK2 (Homo sapiens (Human), UniProt Q14289), Cc1csc(Nc2nc3c(c(Nc4ccccc4S(=O)(=O)NC(C)C)n2)CCN3)n1
Outgoing: < 1000 nM

Incoming: State the measured IC50 (PYK2 (Homo sapiens (Human), UniProt Q14289)) of CC(C)NC(C)c1ccc(Nc2nc3c(c(Nc4ccccc4S(=O)(=O)NC(C)C)n2)CCN3)cc1 (centres unmarked)
Outgoing: < 20 nM

Incoming: Fill: IC50 (PYK2 (Homo sapiens (Human), UniProt Q14289)) for this compound CCCNS(=O)(=O)c1ccccc1Nc1nc(Nc2ccc(N3CCOCC3)cc2OC)nc2c1C(C)CN2 (racemic)
Outgoing: < 20 nM

Incoming: Give IC50 for CNC(=O)c1ccc(Nc2nc3c(c(Nc4ccccc4S(=O)(=O)NC(C)C)n2)CCN3)cc1 tested on PYK2 (Homo sapiens (Human), UniProt Q14289).
Outgoing: < 20 nM

Incoming: Report its IC50 with PYK2 (Homo sapiens (Human), UniProt Q14289) as the test system: COc1cc(N2CCOCC2)ccc1Nc1nc2c(c(Nc3ccc(F)c(F)c3)n1)C(C)(C)CN2
Outgoing: > 1000 nM

Incoming: Name the recorded IC50 of COc1cc(N2CCOCC2)ccc1Nc1nc2c(c(Nc3ccccc3S(=O)(=O)NC3CCC3)n1)C1(CC1)CN2 , assay system PYK2 (Homo sapiens (Human), UniProt Q14289).
Outgoing: < 20 nM

Incoming: Under PYK2 (Homo sapiens (Human), UniProt Q14289): report IC50 of COc1cc(N2CCOCC2)ccc1Nc1nc2c(c(Nc3ccccc3S(=O)(=O)N(C)C)n1)C1(CC1)CN2 .
Outgoing: < 20 nM

Incoming: Fill in IC50 for COCCNS(=O)(=O)c1ccccc1Nc1nc(Nc2ccc(N3CCOCC3)cc2OC)nc2c1C1(CC1)CN2 tested with PYK2 (Homo sapiens (Human), UniProt Q14289).
Outgoing: < 20 nM

Incoming: Give measured IC50 for CC(C)NS(=O)(=O)c1ccccc1Nc1nc(Nc2cccc(NS(C)(=O)=O)c2)nc2c1CCN2 (PYK2 (Homo sapiens (Human), UniProt Q14289)).
Outgoing: < 20 nM

Incoming: Fetch value of IC50 on PYK2 (Homo sapiens (Human), UniProt Q14289) for COc1cc(N2CCC(N(C)C)C2)ccc1Nc1nc2c(c(Nc3ccccc3S(=O)(=O)NC(C)C)n1)CCN2 (centres unmarked) .
Outgoing: < 20 nM

Incoming: Report IC50 under test system PYK2 (Homo sapiens (Human), UniProt Q14289) for COc1cc(N2CCOCC2)ccc1Nc1nc2c(c(Nc3ccc(F)c(F)c3)n1)C(C)CN2 (racemic) .
Outgoing: < 1000 nM

Incoming: State the measured IC50 (PYK2 (Homo sapiens (Human), UniProt Q14289)) of COc1cc(NCCN2CCOCC2)ccc1Nc1nc2c(c(Nc3ccccc3S(=O)(=O)NC(C)C)n1)CCN2
Outgoing: < 20 nM

Incoming: Find the measured IC50 of COc1cc(N2CCOCC2)ccc1Nc1nc2c(c(Nc3cccc(C)n3)n1)C1(CC1)CN2 with PYK2 (Homo sapiens (Human), UniProt Q14289) as test system.
Outgoing: < 100 nM

* * *

Molecular target: FAK (Homo sapiens (Human))
Can you tell me IC50 for the items I'm about to list?

Incoming: For the molecule CNC(=O)c1ccccc1Nc1nc(Nc2cccc3c2OCCO3)nc2c1CCN2 [Example 15] , give its measured IC50 value.
Outgoing: < 500 nM

Incoming: Give the reported value of IC50 for this record: CCNS(=O)(=O)c1ccccc1Nc1nc(Nc2ccc(N3CCOCC3)cc2OC)nc2c1C1(CC1)CN2 [Example 139]
Outgoing: < 20 nM

Incoming: Look up and state reported IC50 for COc1cc(N2CCOCC2)ccc1Nc1nc2c(c(Nc3ccc(F)c(F)c3)n1)C(C)(C)CN2 [Example 125]
Outgoing: < 1000 nM

Incoming: Find the measured IC50 of COc1cc(N2CCOCC2)ccc1Nc1nc2c(c(Nc3ccccc3N(C)S(C)(=O)=O)n1)C(C)(C)CN2 [Example 122] and report it.
Outgoing: < 50 nM

Incoming: Provide measured IC50 value, entry: COc1cc(N2CCOCC2)ccc1Nc1nc2c(c(Nc3ccccc3S(=O)(=O)NC(C)(C)C)n1)C(C)(C)CN2 [Example 117]
Outgoing: < 20 nM

Incoming: Name the recorded IC50 of the molecule listed here: COc1cc(N2CCOCC2)ccc1Nc1nc2c(c(Nc3ccccc3S(=O)(=O)NCCO)n1)C(C)(C)CN2 [Example 119]
Outgoing: < 500 nM

Incoming: Retrieve IC50 measured for CC(=O)Nc1ccc(Nc2nc3c(c(Nc4ccccc4S(=O)(=O)NC(C)C)n2)CCN3)cc1 [Example 63] and print it.
Outgoing: < 20 nM

Incoming: Tell us which IC50 value is on record for COc1cc(N2CCOCC2)ccc1Nc1nc2c(c(Nc3ccccc3S(=O)(=O)NCC3CC3)n1)C1(CC1)CN2 [Example 140]
Outgoing: < 20 nM

Incoming: Recall and state the measured IC50 for COc1cc(N2CCC(N(C)C)C2)ccc1Nc1nc2c(c(Nc3ccccc3S(=O)(=O)NC(C)C)n1)CCN2 (stereo not shown) [Example 89] .
Outgoing: < 20 nM

Incoming: Provide only the value of recorded IC50 for COc1cc(N2CCOCC2)ccc1Nc1nc2c(c(Nc3ccccc3S(=O)(=O)NC3CCC3)n1)CCN2 [Example 6]
Outgoing: < 20 nM

Incoming: Give reported IC50 value for COc1cc(N2CCOCC2)ccc1Nc1nc2c(c(Nc3ccccc3S(=O)(=O)NCCO)n1)C1(CC1)CN2 [Example 142]
Outgoing: > 1000 nM

Incoming: Provide one value: measured IC50 of COc1cc(N2CCOCC2)ccc1Nc1nc2c(c(Nc3ccccc3S(=O)(=O)N(C)C)n1)CCN2 [Example 38]
Outgoing: < 50 nM

Incoming: Supply IC50 value. Item: COc1cc(N2CCOCC2)ccc1Nc1nc2c(c(Nc3ccc(F)c(F)c3)n1)C1(CC1)CN2 [Example 153]
Outgoing: < 200 nM

Incoming: For CNC(=O)c1ccccc1Nc1nc(Nc2cc(C)nn2C)nc2c1CCN2 [Example 20] , write its IC50.
Outgoing: < 1000 nM

Incoming: Given CNC(=O)c1ccccc1Nc1nc(Nc2ccc(N3CCOCC3)cc2OC)nc2c1[C@H](C)CN2 [Example 35] , respond with its IC50.
Outgoing: < 20 nM

Incoming: Look up IC50 of CCN1C(=O)CCCc2c1ccc(Nc1nc3c(c(Nc4ccccc4C(=O)NC)n1)C(C)(C)CN3)c2OC [Example 133] and report it.
Outgoing: < 20 nM
